Kindly supply the reported pIC50 values for the records listed here.
study-target: HLA-B*44:03 (human)
experimental-details: radioligand competition, purified MHC
One number for each entry, as −log10 of the molar value.

# per-item lookup of pIC50; items listed below
1. LATNNLVVM (modifications not checked) [… (SEQ ID NO: 16)]
2. EEFEPSTQYEY (modifications not checked) [… (SEQ ID NO: 20)]
3. DEFVVVTV (modifications not checked) [DEFVVVTV (SEQ ID NO: 11)]
4. YLNSTNVTI (modifications not checked) [… (SEQ ID NO: 24)]

A:
1. 4.33
2. 9.39
3. 5.89
4. 4.30
